Each item that follows carries a reported reverse-splicing fitness.
B1: Azoarcus group I ribozyme (parent)
chain: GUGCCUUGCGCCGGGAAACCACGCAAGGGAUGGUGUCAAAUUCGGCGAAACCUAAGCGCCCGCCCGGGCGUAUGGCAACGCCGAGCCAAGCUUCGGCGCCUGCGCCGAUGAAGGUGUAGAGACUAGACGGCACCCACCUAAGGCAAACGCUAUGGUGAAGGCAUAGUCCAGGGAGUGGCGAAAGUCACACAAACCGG

Variants of: B1
METHOD: reverse-splicing fitness (ratio to wild type); higher = more active; in vitro selection; Mg2+ level not given
Lab note: record the figure alone, no unit after it.

Answered examples (5):
>>> df
                           alteration  reading
0  C82G A111C A120C A145U C169A U176A   0.0143
1  C82G A111U A120G A145G C150A U176G  0.00873
2        C82U A111U A145G C150U U176G   0.0188
3  C82G A111U A120C A145U C150U C169U   0.0129
4       A111G A120U A145U C169A U176A  0.00236

Quote reverse-splicing fitness reported for C82A A111G A120C A145U C150A please. 0.0115

Give a short answer stating reported reverse-splicing fitness for A111U A120U A145G C150G U176C . 0.0225

Output reverse-splicing fitness of C82G A111C A120C A145U C169A U176C 0.0142

Return reported reverse-splicing fitness. Input variant: C82A A111U A145G C150U C169G 0.00968

Identify the reported reverse-splicing fitness for the following entry. A111C A120U A145G C169G U176G 0.00174
